Reference source: patent US20090131470A1

Parameter 'readout' = pIC50; parameter 'system' = PKA (Homo sapiens, UniProt P17612).
Answers are plain numbers, as −log10 of the molar value.

# Compound, pIC50
records = [
    ("Cc1[nH]nc(-c2nc3ccccc3[nH]2)c1C(=O)NC1CCNCC1 [Example 1]", 5.14),
    ("Cc1[nH]nc(-c2nc3ccc(C4CC4)cc3[nH]2)c1C(=O)NC1CN2CCC1CC2 (centres unmarked) [Example 47]", 5.42),
    ("Cc1[nH]nc(-c2nc3ccc(C(C)C)cc3[nH]2)c1C(=O)N[C@@H]1CN2CCC1CC2 [Example 43]", 5.70),
    ("Cc1[nH]nc(-c2nc3cc(Cl)c(Cl)cc3[nH]2)c1C(=O)NC1CCNCC1 [Example 15]", 5.05),
]

// batch mode: one pIC50 value per listed entry
1. Cc1[nH]nc(-c2nc3ccc(C(C)(C)C)cc3[nH]2)c1C(=O)N[C@@H]1CN2CCC1CC2 [Example 41]
2. Cc1cc2nc(-c3n[nH]c(C)c3C(=O)NC3CCN(C)CC3)[nH]c2cc1C [Example 29]

A.
[5.67, 5.22]

Give pIC50 for each of the items listed below.
1. Cc1[nH]nc(-c2nc3cc4ccccc4cc3[nH]2)c1C(=O)NCC1CCNC1 (centres unmarked) [Example 27]
2. Cc1[nH]nc(-c2nc3cc(C(=O)NC(C)C)ccc3[nH]2)c1C(=O)NC1CCNCC1 [Example 24]

A.
1. 5.08
2. 4.97
